Each entry below lists one item and its recorded TGI value.
- Tested on: BT-549 breast
- METHOD: NCI tumour cell line growth inhibition, 48 h

{"MOLECULE": "O=C(N/N=C/c1ccc(Cl)cc1)c1ccccc1Nc1ccccc1C(=O)N/N=C/c1ccc(Cl)cc1", "TGI": "> 100 µM"}
{"MOLECULE": "COc1cc(/C=C/c2cc(O)c(C/C=C(\\C)CC/C=C(\\C)CO)c(O)c2)cc2c1O[C@]1(C)CC[C@@H](O)C(C)(C)[C@H]1C2", "TGI": "> 54.7 µM"}
{"MOLECULE": "Cc1cc2c(cc1Cl)N1C(=O)NS(=O)(=O)N=C1NS2(=O)=O", "TGI": "> 100 µM"}
{"MOLECULE": "COC(=O)/C=C1\\CCCN1CCc1cc2c(cc1CC#N)OCO2", "TGI": "> 100 µM"}
{"MOLECULE": "CCCCCC1=C2C(c3ccc(OC)cc3)=C(N)C(c3ccc(OC)cc3)=C3NC(=O)C(C=C1)C32 (stereo not given)", "TGI": "> 100 µM"}
{"MOLECULE": "O=c1c2cc(O)c(O)cc2oc2cc(O)c(C3OC(CO)C(O)C(O)C3O)c(O)c12 (stereo not given)", "TGI": "> 100 µM"}
{"MOLECULE": "COc1ccc2nc3cc(Cl)ccc3c(Nc3cc(C(C)C)c(O)cc3C)c2c1", "TGI": "2.89 µM"}
{"MOLECULE": "CC(C)(C)OC(=O)NC(CS(=O)(=O)O)C(=O)O (stereo not given)", "TGI": "> 100 µM"}
{"MOLECULE": "O=C1CSC(c2ccccc2O)N1c1nc2cc3sc(N4C(=O)CSC4c4ccccc4O)nc3cc2s1 (stereo not given)", "TGI": "> 100 µM"}

Dear colleague, I am looking for the recorded TGI of the following molecule: COc1c(Br)cc(/C=C(\C#N)c2ccccn2)cc1Br 94.8 µM
